# EC50 hGLP-1R (cAMP) values compiled below
- assayed_target: human GLP-1 receptor (human, UniProt P43220 24-463)
- protocol_notes: cell-based or functional assay
Numbered stars: 1 amine (or outer) side, 2 acyl side, 3 side chain; on linkers, the order of the positions; unused ones are H or OH. Square brackets hold non-standard residues; d marks the D form. Side chains are listed from the residue outwards. Ends that are not written are not given here. γGlu = O=C(O)[C@H](CCC(=O)[*:2])N[*:1]; x70 = not defined here; Aib = CC(C)(N)C(=O)O
Value expressed in pM; do not type the unit.

// below: answered binders
H[Aib]QGTFTSDLSKQK([γGlu-x70])DSRRAQLFIEWLKAGGPSSGAPPPS-NH2 (reading uncertain) [SEQ ID NO: 198]; 8.2
HXQGTFTSDLSKQKESRRAQDFIEWLKKGGPSSGAPPPS (dSer at 2; K(γE-x53) at 14; C-terminal NH2) [SEQ ID NO: 85]; 8.1
HXHGTFTSDLSKQKEEEAARLFIEWLKAGGPSSGAPPPS (dSer at 2; K(γE-X70) at 14; C-terminal NH2) [SEQ ID NO: 219]; 2.1
HXQGTFTSDLSKQKDEKAAQDFIEWLKAGGPSSGAPPPS (dSer at 2; K(γE-x53) at 14; C-terminal NH2) [SEQ ID NO: 22]; 1.1
HXQGTFTSDLSKQKESRRAXDFIEWLKAGGPSSGAPPPS (dSer at 2; K(x53) at 14; Aib at 20; C-terminal NH2) [SEQ ID NO: 76]; 44.9

Lab note: next binder to report on.
The recorded EC50 hGLP-1R (cAMP) for entry HXQGTFTSDLSKQKESEAAQLFIEWLKAGGPSSGAPPPS (dSer at 2; K(γE-x53) at 14; C-terminal NH2) [SEQ ID NO: 21] equals 3.8
